Below, each entry is listed with its recorded MIC90 of the Compounds, isolate CF169.
# System: M. tuberculosis clinical isolate CF169
# method.description: microbe, parasite or virus in culture
# Format: cell-based, Mycobacterium tuberculosis
# setup.conditions: REMA; CF169 resistant to INH and RIF; NL = not loaded (DMSO), L = loaded into NLS
readout.name: MIC90 of the Compounds, isolate CF169

[[record]]
molecule = "CO[C@H]1/C=C/O[C@@]2(C)Oc3c(C)c(O)c4c(O)c(c(/C=N/N5CCN(C)CC5)c(O)c4c3C2=O)NC(=O)/C(C)=C\\C=C\\[C@H](C)[C@H](O)[C@@H](C)[C@@H](O)[C@@H](C)[C@H](OC(C)=O)[C@@H]1C"
reading = ">50 µg/mL"

[[record]]
molecule = "NC[C@@H]1O[C@@H](O[C@H]2[C@H](O)[C@@H](O[C@H]3O[C@H](CO)[C@@H](O)[C@H](N)[C@H]3O)[C@H](N)C[C@@H]2N)[C@@H](O)[C@H](O)[C@H]1O"
reading = "1.5 µg/mL"

[[record]]
molecule = "Cc1ccnc(-c2cc(C)ccn2)c1.F[P-](F)(F)(F)(F)F.O=C([O-])c1ccccn1.[Ru+2].c1ccc(P(CCCCP(c2ccccc2)c2ccccc2)c2ccccc2)cc1 [SCAR2, [Ru(pic)(dppb)(Me-bipy)]PF6]"
reading = "2.6^∗ μg mL^-1"

[[record]]
molecule = "F[P-](F)(F)(F)(F)F.O=C([O-])c1ccccn1.[Ru+2].c1ccc(P(CCP(c2ccccc2)c2ccccc2)c2ccccc2)cc1.c1ccc(P(CCP(c2ccccc2)c2ccccc2)c2ccccc2)cc1 [SCAR5, cis-[Ru(pic)(dppe)2]PF6]"
reading = "2.9^∗ μg mL^-1"


====

# Tested on: M. tuberculosis clinical isolate CF100
# method.description: microbe, parasite or virus in culture
# Assay type: cell-based, Mycobacterium tuberculosis
# setup.conditions: REMA; CF100 resistant to INH; NL = not loaded (DMSO), L = loaded into NLS
Below, each entry is listed alongside its reported MIC90 of the Compounds, isolate CF100.
readout.name: MIC90 of the Compounds, isolate CF100

[[record]]
compound = "Cc1ccnc(-c2cc(C)ccn2)c1.F[P-](F)(F)(F)(F)F.O=C([O-])c1ccccn1.[Ru+2].c1ccc(P(CCCCP(c2ccccc2)c2ccccc2)c2ccccc2)cc1 [SCAR2, [Ru(pic)(dppb)(Me-bipy)]PF6]"
tested_on = "M. tuberculosis clinical isolate CF100"
readout_name = "MIC90 of the Compounds, isolate CF100"
reading = "5.7 µg/mL"

[[record]]
compound = "F[P-](F)(F)(F)(F)F.O=C([O-])c1ccccn1.[Ru+2].c1ccc(P(CCP(c2ccccc2)c2ccccc2)c2ccccc2)cc1.c1ccc(P(CCP(c2ccccc2)c2ccccc2)c2ccccc2)cc1 [SCAR5, cis-[Ru(pic)(dppe)2]PF6]"
tested_on = "M. tuberculosis clinical isolate CF100"
readout_name = "MIC90 of the Compounds, isolate CF100"
reading = "5.1 µg/mL"

[[record]]
compound = "NC[C@@H]1O[C@@H](O[C@H]2[C@H](O)[C@@H](O[C@H]3O[C@H](CO)[C@@H](O)[C@H](N)[C@H]3O)[C@H](N)C[C@@H]2N)[C@@H](O)[C@H](O)[C@H]1O"
tested_on = "M. tuberculosis clinical isolate CF100"
readout_name = "MIC90 of the Compounds, isolate CF100"
reading = "7.8 µg/mL"

[[record]]
compound = "NNC(=O)c1ccncc1"
tested_on = "M. tuberculosis clinical isolate CF100"
readout_name = "MIC90 of the Compounds, isolate CF100"
reading = ">50 µg/mL"

